Assign protein stability index to each entry below.
B1: C1orf55 (parent)
chain: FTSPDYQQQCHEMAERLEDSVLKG

- Variants of: B1
- protocol.description: protein stability index of a GFP-peptide fusion (GPS, HEK-293T) (PSI 1-6); higher = more stable;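 note: lentivirally expressed fusions sorted by FACS into six bins by GFP to DsRed ratio, PSI derived from sequencing read proportions per bin multiplied by bin number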
- test.settings: c terminus: a fixed tail appended
Enter a number only.

Task: Look up and state reported protein stability index for R16Q
Result: 2.4

Task: Look up and state reported protein stability index for P4C
Result: 2.87

Task: Look up and state reported protein stability index for D19V
Result: 2.03

Task: Look up and state reported protein stability index for P4Y
Result: 1.98

Task: Look up and state reported protein stability index for P4M
Result: 2.23

Task: Look up and state reported protein stability index for R16L
Result: 1.77

Task: Look up and state reported protein stability index for T2P
Result: 3.77

Task: Look up and state reported protein stability index for Y6I
Result: 3.94

Task: Look up and state reported protein stability index for H11N
Result: 2.13

Task: Look up and state reported protein stability index for L17N
Result: 2.23

Task: Look up and state reported protein stability index for T2V
Result: 2.45

Task: Look up and state reported protein stability index for L17M
Result: 1.92

Task: Look up and state reported protein stability index for D19C
Result: 2.04

Task: Look up and state reported protein stability index for G24Q
Result: 2

Task: Look up and state reported protein stability index for L22I
Result: 2.36

Task: Look up and state reported protein stability index for E18T
Result: 1.4

Task: Look up and state reported protein stability index for Q7P
Result: 2.27

Task: Look up and state reported protein stability index for L22G
Result: 2.57

Task: Look up and state reported protein stability index for R16P
Result: 2.56

Task: Look up and state reported protein stability index for Q8T
Result: 2.6

Task: Look up and state reported protein stability index for H11D
Result: 2.83

Task: Look up and state reported protein stability index for M13E
Result: 2.62

Task: Look up and state reported protein stability index for T2M
Result: 3.79

Task: Look up and state reported protein stability index for Y6Q
Result: 4.78

Task: Look up and state reported protein stability index for G24M
Result: 2.44

Task: Look up and state reported protein stability index for S3E
Result: 4.12

Task: Look up and state reported protein stability index for E12Q
Result: 2.23

Task: Look up and state reported protein stability index for S3D
Result: 3.25

Task: Look up and state reported protein stability index for S20Y
Result: 1.91

Task: Look up and state reported protein stability index for D5R
Result: 2.03

Task: Look up and state reported protein stability index for S3V
Result: 3.92

Task: Look up and state reported protein stability index for G24C
Result: 2.52

Task: Look up and state reported protein stability index for E15A
Result: 2.8

Task: Look up and state reported protein stability index for F1P
Result: 5.18

Task: Look up and state reported protein stability index for E18P
Result: 1.78

Task: Look up and state reported protein stability index for L17W
Result: 1.98

Task: Look up and state reported protein stability index for D19N
Result: 2.37

Task: Look up and state reported protein stability index for K23S
Result: 2.24

Task: Look up and state reported protein stability index for Y6N
Result: 4.27

Task: Look up and state reported protein stability index for E12H
Result: 2.36

Task: Look up and state reported protein stability index for F1H
Result: 4.59

Task: Look up and state reported protein stability index for M13C
Result: 1.97

Task: Look up and state reported protein stability index for C10P
Result: 3.87

Task: Look up and state reported protein stability index for L17F
Result: 2.01

Task: Look up and state reported protein stability index for C10M
Result: 2.41

Task: Look up and state reported protein stability index for R16F
Result: 2.29

Task: Look up and state reported protein stability index for Q8F
Result: 2.44

Task: Look up and state reported protein stability index for L22Y
Result: 2.26

Task: Look up and state reported protein stability index for F1S
Result: 4.31

Task: Look up and state reported protein stability index for A14D
Result: 2.86

Task: Look up and state reported protein stability index for C10S
Result: 2.87

Task: Look up and state reported protein stability index for M13L
Result: 2.25

Task: Look up and state reported protein stability index for D19L
Result: 1.91

Task: Look up and state reported protein stability index for T2L
Result: 3.48

Task: Look up and state reported protein stability index for E15P
Result: 2.33

Task: Look up and state reported protein stability index for T2G
Result: 3.24

Task: Look up and state reported protein stability index for E18Q
Result: 2.05

Task: Look up and state reported protein stability index for L22Q
Result: 2.79

Task: Look up and state reported protein stability index for R16T
Result: 2.38

Task: Look up and state reported protein stability index for E18K
Result: 1.74

Task: Look up and state reported protein stability index for E18Y
Result: 1.79

Task: Look up and state reported protein stability index for E12G
Result: 2.13

Task: Look up and state reported protein stability index for D5P
Result: 2.94

Task: Look up and state reported protein stability index for A14L
Result: 2.26

Task: Look up and state reported protein stability index for S3R
Result: 2.54

Task: Look up and state reported protein stability index for K23I
Result: 2.1

Task: Look up and state reported protein stability index for Q7C
Result: 1.68

Task: Look up and state reported protein stability index for Q7E
Result: 3.92

Task: Look up and state reported protein stability index for V21Y
Result: 2.06

Task: Look up and state reported protein stability index for H11K
Result: 2.1

Task: Look up and state reported protein stability index for S20N
Result: 1.55

Task: Look up and state reported protein stability index for P4F
Result: 2.6

Task: Look up and state reported protein stability index for T2F
Result: 3.69

Task: Look up and state reported protein stability index for D5I
Result: 2.15

Task: Look up and state reported protein stability index for E18S
Result: 2.06

Task: Look up and state reported protein stability index for S20V
Result: 2.7

Task: Look up and state reported protein stability index for S20T
Result: 2.08

Task: Look up and state reported protein stability index for L22P
Result: 2.97

Task: Look up and state reported protein stability index for Q9D
Result: 3.87

Task: Look up and state reported protein stability index for D5Q
Result: 2.29

Task: Look up and state reported protein stability index for D5F
Result: 2.09

Task: Look up and state reported protein stability index for Q9L
Result: 1.7

Task: Look up and state reported protein stability index for D19R
Result: 1.65

Task: Look up and state reported protein stability index for D19F
Result: 1.79

Task: Look up and state reported protein stability index for C10F
Result: 2.14

Task: Look up and state reported protein stability index for P4D
Result: 4.06

Task: Look up and state reported protein stability index for K23Q
Result: 2.23

Task: Look up and state reported protein stability index for M13Y
Result: 1.93

Task: Look up and state reported protein stability index for K23A
Result: 1.4

Task: Look up and state reported protein stability index for F1E
Result: 4.78

Task: Look up and state reported protein stability index for E12C
Result: 1.93
